Entries annotated with measured Kd
- ASSAY_TARGET: T1, Mouse ST2 (mouse, UniProt P14719 27-332, limits assumed)
- T1 construct: also called mouse ST2 protein
- T1 sequence (looked up): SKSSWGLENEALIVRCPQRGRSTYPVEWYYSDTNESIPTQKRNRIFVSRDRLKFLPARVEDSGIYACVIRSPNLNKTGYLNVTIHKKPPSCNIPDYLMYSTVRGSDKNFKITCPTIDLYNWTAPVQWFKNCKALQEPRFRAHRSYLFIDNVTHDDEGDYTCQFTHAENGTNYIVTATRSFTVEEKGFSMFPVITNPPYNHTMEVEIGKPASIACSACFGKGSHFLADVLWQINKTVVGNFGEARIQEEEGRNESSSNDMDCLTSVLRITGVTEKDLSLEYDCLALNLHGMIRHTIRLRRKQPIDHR
- PROTOCOL_TEXT: SPR (Carterra), antibody immobilized, ST2 analyte, 1:1
Report the figure in nM without appending any unit label.

Solved entries (count: 2):
BINDER: Human ST2 IgG1 Antibody 9 (antibody, V domains shown, IgG1, kappa; also called ST2 Antibody 9) VH: EVQLLESGGGLVQPGGSLRLSCAASGFAFSSHWMHWVRQAPGKGLEWVATISSGSHSIHYADSVKGRFTISRDNSKNTLYLQMNSLRAEDTAVYYCAREAGTSYYYYGMDVWGKGTTVTVSS VL: DIQMTQSPSSLSASVGDRVTITCQASQDIRNYLNWYQQKPGKAPKLLIYKASSLESGVPSRFSGSGSGTDFTLTISSLQPEDFATYYCQQSYSTPPTFGGGTKVEIKR
ASSAY_RESULT: 351

BINDER: Human ST2 IgG1 Antibody 34 (antibody, V domains shown, IgG1, kappa; also called ST2 Antibody 34) VH: QVQLVQSGAEVKKPGASVKVSCKASGQTFTDYAINWVRQAPGQGLEWMGWMNPNSGNTGYAQKFQGRVTMTRDTSTSTVYMELSSLRSEDTAVYYCARETLEQQLPFDYWGQGTLVTVSS VL: DIQMTQSPSSLSASVGDRVTITCRASQSISSWLAWYQQKPGKAPKLLIYAASTLQSGVPSRFSGSGSGTDFTLTISSLQPEDFATYYCQQYYSTLYTFGQGTKVEIKR
ASSAY_RESULT: 126

QUERY: Returns the measured Kd for the input binder. Input: Human ST2 IgG1 Antibody 98 (antibody, V domains shown, IgG1, kappa; also called ST2 Antibody 98) VH: EVQLLESGGGLVKPGGSLRLSCAASGFTFSSYWMSWVRQAPGKGLEWVSAISGTAINTYYADSVKGRFTISRDDSKNTLYLQMNSLKTEDTAVYYCARVRRDSSGGGAFDIWGQGTMVTVSS VL: DIQMTQSPSSLSASVGDRVTITCRASQGISNNLNWYQQKPGKAPKLLIYAASSLQTGVPSRFSGSGSGTDFTLTISSLQPEDFATYYCQQSYSTPPTFGQGTKVEIKR
RESULT: 975
